tested on: SF-539 CNS; test: NCI tumour cell line growth inhibition, 48 h
Property Measured: TGI

Compound	Property Measured	Test Value
O=C(Nc1ccn(CCI)c(=O)n1)c1ccccc1	TGI	> 100 µM

For every item below, please supply its TGI.
1. O=[N+]([O-])c1cccc(C2=NOC3C4CCC(C4)C23)c1 (configuration not stated)
2. S=c1[nH]nc(NNc2ccccc2)n1Nc1ccccc1
3. O=C(CCN1CCOCC1)C(=Cc1ccccc1)C(=O)CCN1CCOCC1

1. > 100 µM
2. > 73.6 µM
3. 10 µM

---

A set of molecules tested on CAKI-1 renal, with measured GI50:

Record excerpt, results attached:
Sample Smiles	Test Value
Clc1nc(Cl)c2ncn(Cc3ccc(Cn4cnc5c(Cl)nc(Cl)nc54)cc3)c2n1	13.6 µM
O=S(=O)(NCCNc1nccc(-c2c(-c3ccc(F)cc3)nc3sccn23)n1)c1ccccc1	3.24 µM
CC(C)CCN[C@@H]1CCc2cc(O)c(N3CC(=O)NS3(=O)=O)c(F)c2C1	3.41 µM

For every item below, please supply its GI50.
1. CO[C@H]1CC(c2ccc[nH]2)=N[C@]12O[C@@H](C)C[C@@H]1CCCCCCCc3ccc([nH]3)[C@H]12
2. COc1cc(/C=C/C(=O)c2cccnc2Nc2ccc(F)cc2)cc(OC)c1OC

1. 1.18 µM
2. 3.68 µM
